Origin of the recorded values: a melting point compilation (Tetko et al.; mined from patent text by program, amines drawn as free bases though some values may be those of a salt)

outcomeMeasure: melting point (°C)

>>> df
                                   compound  readoutnumber
0  C=C(C)C(=O)OCCCc1cc(CCCOC(=O)C(=C)C)c2oc(=O)c(-c3ccc(OC(=O)C(=C)C)cc3)cc2c1             49
1  O=C(Nc1ccc2[nH]ncc2c1)OC(c1cccc(C(=O)Nc2ccccc2)c1)[C@@H]1CCCCN1 (some centres undefined)            150
2     O=P(CN=Cc1ccccc1Cl)(c1ccccc1)c1ccccc1             89
3  Cn1c(C(F)(F)F)nn(-c2cc(F)c(C#N)cc2F)c1=O             74
4  CCCN(CCC(O)c1csc2ccc(F)cc12)C1COc2c(F)ccc(C(N)=O)c2C1 (centres undefined)            117
5  Cc1ccc(OCC2CN=C(N)O2)c(C)c1 (centres undefined)            116

====

Catalogue of melting point values
outcomeMeasure: melting point

>>> print(df.to_string())
                                   compound         result
0  CCN(CC)C(=O)COc1ccc(C(O)(CC)c2cccc(C(F)(F)F)c2)cc1 (stereo not given)    83 to 84 °C
1  Cc1oc(-c2ccccc2)nc1COc1ccc(CON2C(=O)c3ccccc3C2=O)cc1  155 to 156 °C
2  COCCOCOc1c(C(C)(C)C)cc(-c2nc(Br)no2)cc1C(C)(C)C    89 to 91 °C
3                O=C(NCCCc1ccccc1)Oc1ccccc1    55 to 56 °C
4  COc1ccc(S(=O)(=O)c2ccccc2)cc1S(=O)(=O)NC1CCOCC1  176 to 178 °C

====

Catalogue of melting point values
outcomeMeasure: melting point

In [3]: df
Out[3]:
                                   molecule         result
0       CC(=O)N(C)c1ccc(OCc2nc3ccccc3s2)cc1  119 to 120 °C
1  N#Cc1c(-c2ccc(Cl)cc2)[nH]c(C(F)(F)F)c1C(F)(F)F         208 °C
2  O=c1cc(C(F)(F)F)n(-c2c([N+](=O)[O-])cc([N+](=O)[O-])cc2C(F)(F)F)c(=O)[nH]1  219 to 220 °C
3  C#CCN1C(=O)C(C)Oc2cc(F)c(N)cc21 (stereo not given)  142 to 145 °C
4  OC1CSC(Oc2cncc(-c3ccnc(F)c3)c2)C(O)C1O (stereo not given)         208 °C
5  COc1cc(-c2nc(-n3cccn3)c3c(C)c(C#N)sc3n2)cc(OC)c1OC  209 to 214 °C
6                CSc1nc(NC2CCCCC2)c2nonc2n1  129 to 130 °C
7  CSC1=NC2=NC3=C(CN2N1)C(Cc1ccccc1)CNC3=O (stereo not given)  232 to 234 °C
8   CCOC(=O)c1nc(-c2ccc(Cl)cc2)c(F)c(N)c1Cl  103 to 104 °C
9  CC(C)(C)OC(=O)N1CCC[C@H](COc2cccnc2Br)C1    79 to 81 °C

====

Catalogue of melting point values
outcomeMeasure: melting point

In [3]: df
Out[3]:
                                   compound         result
0                    NS(=O)(=O)OCCN1CCCC1=O  110 to 112 °C
1    CS(=O)(=O)C1CCCC1Br (stereo not given)    50 to 52 °C
2  NC(=O)c1nc(-c2cccc(O)c2)nc2c1[nH]c(=O)n2-c1ccccc1C(F)(F)F  363 to 365 °C
3                CCOC(=O)C(C#N)=CNc1ncccc1C  139 to 143 °C
4        Cc1ccn2c(C(=O)NCc3ccccc3)c(C)nc2c1  166 to 167 °C
5    CC(C)OC(=O)CCC(=O)c1ccc(-c2ccccc2F)cc1    65 to 66 °C
6  C=C1c2c(C)c(OCc3ccccc3)c(C)c(C)c2OC1(C)C    55 to 57 °C
7  COCCNC(=O)c1cccc(-c2cccc3cc(Cc4cc(F)cc(C(F)(F)F)c4)sc23)c1  106 to 107 °C
8  N#Cc1[nH]c(-c2c(Cl)cc(C(F)(F)F)cc2Cl)nc1C(N)=O  254 to 255 °C
9  O=C(NCc1ccccc1)c1ccnc(NC(=O)c2ccccc2F)c1  175 to 176 °C
